Listed here are molecules together with their documented inhibition.
- ASSAYED_TARGET: MAP kinase-activated protein kinase 5 (Homo sapiens);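 also: reported values are mean PRAK inhibition figures from the GSK PKIS screen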
- TEST_PARAMETERS: at 0.1 µM
Note: unit % is implicit; provide only the numeric part.

MOLECULE	ASSAYED_TARGET	UNIT_DESCRIPTOR	inhibition
NC(=O)Cc1ccccc1Oc1nccc(-c2c(-c3ccc(F)cc3)ncn2C2CCNCC2)n1	MAP kinase-activated protein kinase 5 (Homo sapiens)	%	0.43
Cc1ccc(NC(=O)c2ccoc2)cc1-c1ccc(C(=O)NCC2CC2)cc1	MAP kinase-activated protein kinase 5 (Homo sapiens)	%	0.96
NS(=O)(=O)c1ccc(N/N=C2\C(=O)Nc3ccc(-c4cnco4)cc32)cc1	MAP kinase-activated protein kinase 5 (Homo sapiens)	%	1.08
CCc1cccc(CC)c1/C=C/c1cncc(C(=O)NC)c1	MAP kinase-activated protein kinase 5 (Homo sapiens)	%	0.86
CN(c1ccc(NC(=O)Nc2c(Cl)cccc2Cl)cc1)c1ccnc(Nc2cccc(CS(C)(=O)=O)c2)n1	MAP kinase-activated protein kinase 5 (Homo sapiens)	%	1.58

Lookup result for NC(=O)c1cc(-c2ccncc2)cc(-c2ccccc2)c1N ; measured inhibition: 1.31

The recorded inhibition for O=C1Nc2ccc(I)cc2C1=Cc1cc(Br)c(O)c(Br)c1 is 1.19

// inhibition value for c1ccc(Oc2ccc(Nc3ncc(-c4ccccc4)o3)cc2)cc1 : 0.66

Reported inhibition of COc1cc(Nc2ncc3c(C)nc(-c4cccc(Oc5ccccc5)c4)n3n2)cc(OC)c1OC : -0.04

# inhibition (molecule: COc1cc2ncn(-c3cc(OCc4cccs4)c(C(N)=O)s3)c2cc1OC ) is 2.5

Quick note, inhibition for Clc1ccc(CNc2nccc(-c3cnn4ncccc34)n2)cc1 landed at 0.35

###

- ASSAYED_TARGET: Protein-tyrosine kinase 2-beta (Homo sapiens) (UniProt Q14289);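 also: values are the mean percent inhibition of PYK2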
- Sequence (Q14289 whole entry, looked up): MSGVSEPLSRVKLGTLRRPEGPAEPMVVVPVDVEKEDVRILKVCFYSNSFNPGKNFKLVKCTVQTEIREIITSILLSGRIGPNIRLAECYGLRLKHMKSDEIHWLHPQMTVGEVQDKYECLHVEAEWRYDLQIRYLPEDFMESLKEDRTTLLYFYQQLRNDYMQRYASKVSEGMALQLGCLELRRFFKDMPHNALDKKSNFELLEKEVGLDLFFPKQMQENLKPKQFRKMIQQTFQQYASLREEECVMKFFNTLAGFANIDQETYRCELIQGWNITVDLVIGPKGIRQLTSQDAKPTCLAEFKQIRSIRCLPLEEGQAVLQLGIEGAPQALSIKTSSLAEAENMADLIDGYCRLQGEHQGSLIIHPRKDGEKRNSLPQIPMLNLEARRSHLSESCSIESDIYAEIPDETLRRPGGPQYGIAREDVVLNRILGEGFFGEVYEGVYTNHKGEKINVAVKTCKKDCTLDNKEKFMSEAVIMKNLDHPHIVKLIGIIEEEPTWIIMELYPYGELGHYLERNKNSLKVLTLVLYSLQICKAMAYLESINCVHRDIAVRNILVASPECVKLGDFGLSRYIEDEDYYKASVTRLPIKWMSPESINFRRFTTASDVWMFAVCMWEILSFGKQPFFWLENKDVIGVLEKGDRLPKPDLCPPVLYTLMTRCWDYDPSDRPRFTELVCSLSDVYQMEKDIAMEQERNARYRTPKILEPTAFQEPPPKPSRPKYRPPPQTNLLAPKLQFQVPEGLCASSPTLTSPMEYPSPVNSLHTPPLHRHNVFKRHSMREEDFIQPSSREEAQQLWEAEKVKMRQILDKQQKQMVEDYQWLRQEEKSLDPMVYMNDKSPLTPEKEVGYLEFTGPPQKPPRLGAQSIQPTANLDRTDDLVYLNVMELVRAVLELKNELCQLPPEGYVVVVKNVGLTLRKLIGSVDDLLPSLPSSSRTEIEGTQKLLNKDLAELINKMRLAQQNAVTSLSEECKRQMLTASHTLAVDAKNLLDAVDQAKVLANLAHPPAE
- TEST_PARAMETERS: at 1 µM
Decision: inhibition >= 7% yields 1 (yes), all other cases yield 0 (no).

Example entries and their recorded answers appear below.
MOL	CLASS_LABEL
COc1cc2ncn(-c3cc(OCCc4ccccc4)c(C(N)=O)s3)c2cc1OC	0 (no)
c1ccc(Oc2ccc(Nc3ncc(-c4ccccc4)o3)cc2)cc1	1 (yes)
NC(=O)c1ccc(Oc2nccc(-c3c(-c4ccc(F)cc4)ncn3C3CCNCC3)n2)cc1	1 (yes)
Fc1ccc(-c2ncn(C3CCNCC3)c2-c2ccnc(Oc3ccc(F)c(F)c3)n2)cc1	1 (yes)
Fc1ccc(-c2ncn(C3CCNCC3)c2-c2ccnc(Oc3ccc(Oc4ccccc4)cc3)n2)cc1	0 (no)

Please examine the following record next.
Could you please find out whether COc1cc(N2CCN(C(C)C)CC2)ccc1Nc1nc(Nc2ccc(F)cc2C(=O)NC[C@@H](O)CO)c2cc[nH]c2n1 has inhibition that meets 7% or exceeds it?
1 (yes)

###

- ASSAYED_TARGET: Tyrosine-protein kinase ZAP-70 (Homo sapiens) (UniProt P43403)
- Sequence (whole entry): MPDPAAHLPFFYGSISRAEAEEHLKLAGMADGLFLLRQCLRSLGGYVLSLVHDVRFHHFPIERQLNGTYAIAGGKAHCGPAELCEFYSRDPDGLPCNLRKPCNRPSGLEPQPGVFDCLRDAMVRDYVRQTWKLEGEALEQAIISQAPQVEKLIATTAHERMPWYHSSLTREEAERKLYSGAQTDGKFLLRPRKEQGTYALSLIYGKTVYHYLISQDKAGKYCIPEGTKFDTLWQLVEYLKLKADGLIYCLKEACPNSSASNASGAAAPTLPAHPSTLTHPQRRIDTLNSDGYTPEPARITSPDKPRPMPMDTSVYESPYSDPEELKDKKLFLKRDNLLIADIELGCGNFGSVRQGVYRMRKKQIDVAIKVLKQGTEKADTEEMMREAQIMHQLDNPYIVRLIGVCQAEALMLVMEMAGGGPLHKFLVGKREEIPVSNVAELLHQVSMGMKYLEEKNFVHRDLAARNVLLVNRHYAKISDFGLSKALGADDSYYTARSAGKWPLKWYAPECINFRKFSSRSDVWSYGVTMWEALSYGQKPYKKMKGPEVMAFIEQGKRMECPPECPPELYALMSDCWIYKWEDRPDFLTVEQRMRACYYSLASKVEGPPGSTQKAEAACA
- TEST_PARAMETERS: at 1 µM
- Description: GSK_PKIS: ZAP70 mean inhibition at 1 uM [Nanosyn]
Catalogue of compounds with associated inhibition
Please state the figure in %; there is no need to write the unit.

Field: example entries. Status: answers known.
MOL	UNIT_DESCRIPTOR	inhibition
COc1cc(Nc2ncc3c(C)nc(-c4cccc(Oc5ccccc5)c4)n3n2)cc(OC)c1OC	%	-1.81
CCS(=O)(=O)c1ccc(OC)c(Nc2ncc(-c3cccc(-c4ccccc4F)c3)o2)c1	%	-0.05
CN(C)c1ccc2c(c1)/C(=C/Nc1ccc(S(N)(=O)=O)cc1)C(=O)N2	%	5.7
COc1cccc(-n2cnc3c(N/N=C/c4ccncc4)ncnc32)c1	%	-3.33

Record for C[C@@H](Oc1cc(-n2cnc3ccc(OC4CCN(C)CC4)cc32)sc1C(N)=O)c1ccccc1Cl under target or system Tyrosine-protein kinase ZAP-70 (Homo sapiens) (UniProt P43403): inhibition reported as -1.32

###

- ASSAYED_TARGET: Protein kinase C theta type (Homo sapiens);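 also: reported figure is the mean percent inhibition of PKC-theta, from the GSK PKIS screen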
- TEST_PARAMETERS: at 0.1 µM
Reported inhibition by item:
Answer format: numeric, % implied, no suffix.

MOL	READOUT_TYPE	QUANTITATIVE_READOUT
COc1ccc2ncn(-c3cc(O[C@H](C)c4ccccc4Cl)c(C(N)=O)s3)c2c1	inhibition	2.43
NS(=O)(=O)c1ccc(N/N=C2\C(=O)Nc3ccc(C(=O)NCCCn4ccnc4)cc32)cc1	inhibition	2.3
Fc1ccc(-c2nc3n(c2-c2ccncc2)CCS3)cc1	inhibition	1.87

Note to self: inhibition recorded for COc1cccc(/C=N/Nc2ncnc3c2cnn3-c2cccc(OC)c2)c1 was 1.69

###

- ASSAYED_TARGET: Non-receptor tyrosine-protein kinase TNK1 (Homo sapiens);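 also: reported values are mean inhibition figures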
- TEST_PARAMETERS: at 0.1 µM
READOUT_TYPE: inhibition (%)
Supply the numeric figure in %, leaving out any unit text.

Recorded inhibition, per entry:
MOL	UNIT_DESCRIPTOR	inhibition
COc1ccc(-c2ccc3c(NC(=O)C4CC4)n[nH]c3n2)cc1	%	1.34
c1ccc(Oc2ccc(Nc3ncc(-c4ccccc4)o3)cc2)cc1	%	0.99
COc1cc(C)c(N(C)C(=O)CN(C)C)cc1Nc1nc(Nc2cccc(F)c2C(N)=O)c2cc[nH]c2n1	%	1.97

Recorded result, CCc1ccc(Oc2nccc(-c3c(-c4ccc(F)cc4)ncn3C3CCNCC3)n2)cc1 , inhibition: 1.24

Lab note: measured inhibition of CCc1nccc2c1nc(-c1nonc1N)n2CC was 0.71

Kindly note the recorded inhibition for CNC(=O)c1cncc(/C=C/c2c(C)cccc2C)c1 , which is 0.82

###

- ASSAYED_TARGET: Tyrosine-protein kinase JAK2 (Homo sapiens);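 also: mean JAK2 inhibition from the GSK PKIS screen, compounds tested at 1 µM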
- TEST_PARAMETERS: at 1 µM
Measured inhibition of individual entries
State just the number; it will be interpreted in %.

Worked cases, answers included:
MOL	UNIT_DESCRIPTOR	QUANTITATIVE_READOUT
CS(=O)(=O)CCNCc1cc(-c2cc3c(Nc4ccc(OCc5cccc(F)c5)c(Cl)c4)ncnc3s2)cs1	%	5.69
CCS(=O)(=O)c1ccc(OC)c(Nc2ncc(-c3ccccc3Cl)o2)c1	%	0.94

For this compound ( CS(=O)(=O)CCNCc1ccc(-c2ccc3ncnc(Nc4ccc(OCc5ccccc5)c(Br)c4)c3c2)o1 ), measured inhibition is -1.02

For record CCC(=O)Nc1ccc(C)c(-c2ccc(C(=O)NCC3CC3)cc2)c1 the listed inhibition is 1.15

Noted for COc1cc(Nc2ncc(-c3ccccc3)o2)cc(OC)c1OC : its inhibition reads 5.24

###

In this section, each of the molecules is paired with its reported inhibition.
- ASSAYED_TARGET: Calcium/calmodulin-dependent protein kinase type IV (Homo sapiens) (UniProt Q16566);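 also: each value is a mean inhibition of CAMK4, part of the GSK PKIS kinase screening panel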
- Sequence (Q16566 whole entry): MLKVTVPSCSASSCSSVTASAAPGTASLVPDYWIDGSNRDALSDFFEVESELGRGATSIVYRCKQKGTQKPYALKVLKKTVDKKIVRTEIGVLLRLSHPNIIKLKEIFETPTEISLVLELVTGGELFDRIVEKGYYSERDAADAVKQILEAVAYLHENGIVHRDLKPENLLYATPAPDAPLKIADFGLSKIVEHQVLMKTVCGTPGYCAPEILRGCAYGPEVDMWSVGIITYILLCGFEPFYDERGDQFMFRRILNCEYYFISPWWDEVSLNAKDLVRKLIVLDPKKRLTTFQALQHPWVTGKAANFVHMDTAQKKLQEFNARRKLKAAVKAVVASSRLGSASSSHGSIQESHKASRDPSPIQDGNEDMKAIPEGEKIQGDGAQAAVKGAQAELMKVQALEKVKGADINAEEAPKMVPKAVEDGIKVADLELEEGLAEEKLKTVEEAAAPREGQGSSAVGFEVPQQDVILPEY
- TEST_PARAMETERS: at 0.1 µM
The reply should contain only the number, in %.

The molecule CCc1cccc(CC)c1/C=C/c1cncc(C(=O)NC)c1 showed inhibition equal to 1.05

Recorded result, O=C(NCC1CC1)c1ccc(-c2cccc(C(=O)NC3CC3)c2)cc1 , inhibition: 0.89

Just so you know, measured inhibition for C#Cc1cccc(Nc2ncnc3ccc(OCCCCNCCS(C)(=O)=O)cc23)c1 came out at -0.65

Looking up COc1ccc2cc(-c3c(-c4ccncc4)nc(-c4ccc(S(C)(=O)=O)cc4C)n3C)ccc2c1 , I see its inhibition listed as 0.37

For record NC(=O)c1ccc(Oc2nccc(-c3c(-c4ccc(F)cc4)ncn3C3CCNCC3)n2)cc1 the listed inhibition is 0.24

###

- ASSAYED_TARGET: 5'-AMP-activated protein kinase catalytic subunit alpha-2 (Homo sapiens);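 also: mean inhibition measured on the AMPK complex of alpha2, beta1 and gamma1 subunits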
- TEST_PARAMETERS: at 0.1 µM
- Description: GSK_PKIS: AMPKA2 (A2B1G1) mean inhibition at 0.1 uM [Nanosyn]
Recorded inhibition, one value per entry.
Give your result as the value with the unit written after it.

Here's what some known entries look like.
MOL	RESULT
C#Cc1cccc(Nc2ncnc3ccc(OCCCCNCCS(C)(=O)=O)cc23)c1	4.13%
COc1cc(N2CCN(C(C)C)CC2)ccc1Nc1nc(Nc2ccc(F)cc2C(=O)NC[C@@H](O)CO)c2cc[nH]c2n1	2.37%

For Fc1ccc(-c2ncn(C3CCNCC3)c2-c2ccnc(Oc3ccc(F)c(F)c3)n2)cc1 the compound record lists inhibition as 3.75%

Record Cc1nnc(-c2ccc(C)c(-c3ccc(C(=O)NCc4ccc(Cl)cc4)cc3)c2)o1 . Reported inhibition: 3.74%

// inhibition value for NC(=O)c1cc(-c2ccncc2)cc(-c2ccccc2)c1N : 4.45%
